Reference source: ChEMBL document CHEMBL2385031

# Assay System: Interstitial collagenase (Homo sapiens, UniProt P03956)
# Sequence (P03956 whole entry): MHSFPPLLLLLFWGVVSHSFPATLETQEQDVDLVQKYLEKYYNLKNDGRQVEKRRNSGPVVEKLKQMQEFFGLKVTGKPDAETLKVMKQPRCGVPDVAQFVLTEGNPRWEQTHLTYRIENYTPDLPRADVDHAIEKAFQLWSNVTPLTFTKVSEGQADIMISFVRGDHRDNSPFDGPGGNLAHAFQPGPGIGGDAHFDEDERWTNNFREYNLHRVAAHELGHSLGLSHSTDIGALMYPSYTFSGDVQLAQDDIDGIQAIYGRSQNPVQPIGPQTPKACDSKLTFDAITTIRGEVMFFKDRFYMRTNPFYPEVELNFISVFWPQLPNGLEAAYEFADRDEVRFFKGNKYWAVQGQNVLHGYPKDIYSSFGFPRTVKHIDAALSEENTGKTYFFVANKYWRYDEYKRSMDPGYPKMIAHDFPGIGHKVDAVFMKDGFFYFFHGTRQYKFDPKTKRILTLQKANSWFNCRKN
pIC50: −log10 of the molar value.
Recorded Endpoint: pIC50

(Q) // query pIC50 value for entry `O=C(Nc1ccc(S(=O)(=O)N[C@H](Cc2c[nH]c3ccccc23)C(=O)O)cc1)c1ccc(Br)cc1`
(A) < 6.00
